# EXPERIMENTAL DETAILS: Solubility of compound in PBS incubated for 30 minutes by clear-bottomed UV analysis
# Type: physicochemical
PROPERTY LABEL: solubility at 0.5 h

COCCSc1nnc(COc2ccc(-c3ccc(S(C)(=O)=O)cc3)c(C)c2)n1-c1cccnc1 :: 260 µM
Cc1cc(OCc2nnc(SC3C=CCCC3)n2-c2cccnc2)ccc1-c1ccc(S(C)(=O)=O)cc1 (stereo unspecified) :: 140 µM
Cc1cc(OCc2nnc(SC3C=CCCC3)n2-c2cccnc2)ccc1C#CCO (stereo unspecified) :: 39 µM
Cc1cc(OCc2nnc(SC3C=CCCC3)n2-c2cccnc2)ccc1C#CCNS(=O)(=O)c1ccc(F)cc1 (stereo unspecified) :: 24 µM
Cc1cc(OCc2nnc(SC3C=CCCC3)n2-c2cccnc2)ccc1C#CCNC(=O)OC(C)(C)C (stereo unspecified) :: 92 µM
Cc1cc(OCc2nnc(SC3C=CCCC3)n2-c2cccnc2)ccc1C#CCOC(=O)NC1CCN(C)CC1 (stereo unspecified) :: 61 µM

----------
# SYSTEM: Transitional endoplasmic reticulum ATPase (Homo sapiens)
# Sequence (P55072 whole entry): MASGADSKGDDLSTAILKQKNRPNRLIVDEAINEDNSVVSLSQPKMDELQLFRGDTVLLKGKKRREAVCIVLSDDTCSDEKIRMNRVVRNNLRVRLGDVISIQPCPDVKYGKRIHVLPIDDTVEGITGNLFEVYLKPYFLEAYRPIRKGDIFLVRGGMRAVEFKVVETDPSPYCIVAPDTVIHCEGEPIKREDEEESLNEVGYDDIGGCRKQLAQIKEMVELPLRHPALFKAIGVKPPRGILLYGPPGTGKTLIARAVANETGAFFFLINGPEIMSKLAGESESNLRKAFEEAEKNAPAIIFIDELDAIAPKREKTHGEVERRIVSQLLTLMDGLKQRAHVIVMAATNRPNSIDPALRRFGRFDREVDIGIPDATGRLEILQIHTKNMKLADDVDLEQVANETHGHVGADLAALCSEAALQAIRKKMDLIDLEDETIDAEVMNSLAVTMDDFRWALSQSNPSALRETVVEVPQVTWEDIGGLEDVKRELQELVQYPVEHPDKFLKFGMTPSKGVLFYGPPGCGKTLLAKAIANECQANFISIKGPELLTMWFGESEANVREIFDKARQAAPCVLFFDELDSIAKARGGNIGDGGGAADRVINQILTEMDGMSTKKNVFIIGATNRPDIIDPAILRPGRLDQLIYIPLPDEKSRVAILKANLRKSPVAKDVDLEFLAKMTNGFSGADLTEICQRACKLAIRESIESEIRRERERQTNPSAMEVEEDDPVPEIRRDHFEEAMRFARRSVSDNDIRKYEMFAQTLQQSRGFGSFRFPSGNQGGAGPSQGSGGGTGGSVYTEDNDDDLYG
# EXPERIMENTAL DETAILS: Inhibition of p97 in human HeLa cells expressing UbG76V-GFP/ODD-Luc assessed as accumulation of Ub-GFP incubated for 6 hrs by confocal microscopic analysis
pEC50: −log10 of the molar value.
PROPERTY LABEL: pEC50

Cc1cc(OCc2nnc(SC3C=CCCC3)n2-c2cccnc2)ccc1C#CCNC1CCN(C)CC1 (centres undefined) :: 5.82
Cc1cc(OCc2nnc(SC3C=CCCC3)n2-c2cccnc2)ccc1C#CCNC(C)C (centres undefined) :: 5.57
Cc1cc(OCc2nnc(SC3C=CCCC3)n2-c2cccnc2)ccc1C#CCN (centres undefined) :: 5.35
CN1CCN(CCNC(=O)OCC#Cc2ccc(OCc3nnc(SC4C=CCCC4)n3-c3cccnc3)cc2F)CC1 (centres undefined) :: 6.09
Cc1cc(OCc2nnc(SC3C=CCCC3)n2-c2cccnc2)ccc1C#CCNC(=O)OC(C)(C)C (centres undefined) :: 4.96
CN1CCC(NC(=O)OCC#Cc2ccc(OCc3nnc(SC4C=CCCC4)n3-c3cccnc3)c(F)c2F)CC1 (centres undefined) :: 5.89
Cc1cc(OCc2nnc(SC3C=CCCC3)n2-c2cccnc2)ccc1C#CCNS(C)(=O)=O (centres undefined) :: 5.57

----------
# EXPERIMENTAL DETAILS: Solubility of compound in PBS incubated for 30 minutes by clear-bottomed UV analysis
# Type: physicochemical
Lab note: anything with solubility at 0.5 h at or over 50 µM counts as 1.0; the rest go in 0.0.

[2H]C1([2H])C([2H])([2H])C([2H])([2H])C([2H])(Sc2nnc(COc3ccc(-c4ccc(S(C)(=O)=O)cc4)c(C)c3)n2-c2cccnc2)C1([2H])[2H] :: 0.0
Cc1cc(OCc2nnc(SC3C=CCCC3)n2-c2cccnc2)ccc1C#CCN (stereo not drawn) :: 1.0
Cc1cc(OCc2nnc(SC3C=CCCC3)n2-c2cccnc2)ccc1C#CCNC1CCN(C)CC1 (stereo not drawn) :: 1.0
Cc1cc(OCc2nnc(SC3CCC(F)(F)CC3)n2-c2cccnc2)ccc1-c1ccc(S(C)(=O)=O)cc1 :: 1.0
Cc1cc(OCc2nnc(SC3CCCCC3)n2-c2cccnc2)ccc1-c1ccc(S(C)(=O)=O)cc1 :: 1.0
Cc1cc(OCc2nnc(SC3CCOCC3)n2-c2cccnc2)ccc1-c1ccc(S(C)(=O)=O)cc1 :: 1.0
Cc1cc(OCc2nnc(SC3CCNCC3)n2-c2cccnc2)ccc1-c1ccc(S(C)(=O)=O)cc1 :: 1.0
Cc1cc(OCc2nnc(SC3CCCC=C3F)n2-c2cccnc2)ccc1-c1ccc(S(C)(=O)=O)cc1 (stereo not drawn) :: 0.0
